B1: Ribonuclease, P00648 (parent)
chain: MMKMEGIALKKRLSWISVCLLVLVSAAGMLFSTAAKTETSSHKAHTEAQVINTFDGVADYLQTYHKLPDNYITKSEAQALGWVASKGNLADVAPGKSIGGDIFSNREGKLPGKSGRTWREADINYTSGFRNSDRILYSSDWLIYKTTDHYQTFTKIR

Variants of: B1
experimentalParameters: Bacillus amyloliquefaciens; pH 6.3; 25 °C; Urea; Fluorescence; MES-NaOH 450 mM; reversible: yes; structure 1BNI; whole UniProt chain shown
Consider the following variants; for each one, report its ddG of mutation (higher = less stable).
One number for each entry, in kcal/mol.

> print(dat)
   mutationnotation  measured
1              I51A      0.75
2              V92A      1.17
3              N88D      2.62
4             I123V      0.98
5             I143V      1.02

// for each variant below, give its ddG of mutation (higher = less stable)
1. N131A
2. T53G
3. V83T
4. N70A
5. T63R
6. D55A D59A R157A

1.59
0.61
1.05
2.2
-0.74
-0.18

// for each variant below, give its ddG of mutation (higher = less stable)
1. Y64A
2. L136T
3. I143A

1. 1.67
2. 3.28
3. 3.15

// for each variant below, give its ddG of mutation (higher = less stable)
1. T53A
2. R157A
3. Y71F

[2.02, -0.07, -0.09]

// for each variant below, give its ddG of mutation (higher = less stable)
1. D101N
2. Y60A Y64A
3. I102T
4. V83A
5. D59A R157A
6. I156V
7. E76G

1. 1.78
2. 3.96
3. 1.24
4. 1.68
5. -0.39
6. 0.81
7. 2.05
